molecular target: Homeodomain-interacting protein kinase 2 (Homo sapiens); test: Inhibition of human recombinant HIPK2 I471N mutant (165 to 564 residues) using myelin basic protein as substrate after 40 mins by [gamma-33ATP] radiometric assay
Sequence (Q9H2X6 whole entry, the tested form may be a part): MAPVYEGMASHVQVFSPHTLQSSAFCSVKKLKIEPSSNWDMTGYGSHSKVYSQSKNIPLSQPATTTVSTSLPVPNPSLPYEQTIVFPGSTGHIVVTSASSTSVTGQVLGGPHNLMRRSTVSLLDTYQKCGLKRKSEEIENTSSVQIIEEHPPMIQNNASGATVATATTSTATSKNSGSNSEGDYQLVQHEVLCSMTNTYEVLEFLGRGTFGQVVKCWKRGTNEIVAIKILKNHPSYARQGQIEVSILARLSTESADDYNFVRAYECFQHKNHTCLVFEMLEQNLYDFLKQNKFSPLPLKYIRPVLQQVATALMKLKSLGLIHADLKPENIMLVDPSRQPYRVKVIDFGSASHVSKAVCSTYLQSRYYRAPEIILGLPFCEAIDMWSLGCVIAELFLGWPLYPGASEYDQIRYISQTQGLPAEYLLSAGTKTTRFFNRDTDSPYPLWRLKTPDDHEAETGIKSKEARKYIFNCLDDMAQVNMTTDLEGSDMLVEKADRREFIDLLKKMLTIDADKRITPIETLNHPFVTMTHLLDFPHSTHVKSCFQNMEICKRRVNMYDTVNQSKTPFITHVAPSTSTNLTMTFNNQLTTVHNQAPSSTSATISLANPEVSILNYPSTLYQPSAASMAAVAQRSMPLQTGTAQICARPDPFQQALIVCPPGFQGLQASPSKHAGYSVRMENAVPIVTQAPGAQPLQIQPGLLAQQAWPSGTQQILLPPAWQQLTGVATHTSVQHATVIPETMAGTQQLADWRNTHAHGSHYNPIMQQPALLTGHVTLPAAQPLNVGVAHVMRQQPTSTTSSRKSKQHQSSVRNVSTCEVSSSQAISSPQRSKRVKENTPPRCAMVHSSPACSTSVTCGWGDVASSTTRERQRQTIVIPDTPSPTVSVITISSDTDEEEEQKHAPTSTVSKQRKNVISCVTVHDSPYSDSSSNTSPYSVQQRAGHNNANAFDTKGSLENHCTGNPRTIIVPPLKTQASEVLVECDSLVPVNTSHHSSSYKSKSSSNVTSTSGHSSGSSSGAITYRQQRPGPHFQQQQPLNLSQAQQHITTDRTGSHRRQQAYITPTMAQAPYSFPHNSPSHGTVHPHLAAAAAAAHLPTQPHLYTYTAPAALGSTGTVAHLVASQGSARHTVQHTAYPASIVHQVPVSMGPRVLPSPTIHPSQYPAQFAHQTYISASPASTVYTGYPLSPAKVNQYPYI
Experimental endpoint: IC50

Recorded IC50 (compound `CN(C)c1ccc(C(=O)Nc2cccc(NC(=O)COc3ccc4c(=O)ccoc4c3)c2)cc1` ): > 10 µM

* * *

target: UniProt:P43403; assay: Inhibition of recombinant full length human ZAP70 using poly(Glu, Tyr) 4:1 as substrate incubated for 40 mins in presence of [gamma33P]ATP by radiometric scintillation counting analysis
Sequence (P43403 whole entry): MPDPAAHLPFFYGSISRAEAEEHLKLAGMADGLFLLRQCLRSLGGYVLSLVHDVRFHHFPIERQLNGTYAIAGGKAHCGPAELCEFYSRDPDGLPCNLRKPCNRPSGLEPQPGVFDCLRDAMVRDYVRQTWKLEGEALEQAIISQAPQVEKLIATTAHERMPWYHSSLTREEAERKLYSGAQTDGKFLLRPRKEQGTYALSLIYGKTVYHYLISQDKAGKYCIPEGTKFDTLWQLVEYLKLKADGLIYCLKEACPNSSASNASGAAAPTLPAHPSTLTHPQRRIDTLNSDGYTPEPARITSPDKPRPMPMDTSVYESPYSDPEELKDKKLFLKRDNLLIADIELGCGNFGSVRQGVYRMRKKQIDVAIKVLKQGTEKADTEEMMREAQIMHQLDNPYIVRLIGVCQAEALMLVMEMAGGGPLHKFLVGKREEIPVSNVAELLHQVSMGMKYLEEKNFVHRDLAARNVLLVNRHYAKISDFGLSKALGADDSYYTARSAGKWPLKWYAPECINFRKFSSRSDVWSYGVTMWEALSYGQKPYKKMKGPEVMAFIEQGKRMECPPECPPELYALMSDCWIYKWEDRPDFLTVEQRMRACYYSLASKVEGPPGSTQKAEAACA
pIC50: −log10 of the molar value.
Experimental endpoint: pIC50

molecule `CN(C)c1ccc(C(=O)Nc2cccc(NC(=O)COc3ccc4c(=O)ccoc4c3)c2)cc1` , pIC50 observed: < 5.00

* * *

biological target: Ribosomal protein S6 kinase alpha-1 (Homo sapiens, UniProt Q15418); experiment: Inhibition of recombinant full length human Rsk1 using KKKNRTLSVA as substrate incubated for 40 mins in presence of [gamma33P]ATP by radiometric scintillation counting analysis
Sequence (Q15418 whole entry): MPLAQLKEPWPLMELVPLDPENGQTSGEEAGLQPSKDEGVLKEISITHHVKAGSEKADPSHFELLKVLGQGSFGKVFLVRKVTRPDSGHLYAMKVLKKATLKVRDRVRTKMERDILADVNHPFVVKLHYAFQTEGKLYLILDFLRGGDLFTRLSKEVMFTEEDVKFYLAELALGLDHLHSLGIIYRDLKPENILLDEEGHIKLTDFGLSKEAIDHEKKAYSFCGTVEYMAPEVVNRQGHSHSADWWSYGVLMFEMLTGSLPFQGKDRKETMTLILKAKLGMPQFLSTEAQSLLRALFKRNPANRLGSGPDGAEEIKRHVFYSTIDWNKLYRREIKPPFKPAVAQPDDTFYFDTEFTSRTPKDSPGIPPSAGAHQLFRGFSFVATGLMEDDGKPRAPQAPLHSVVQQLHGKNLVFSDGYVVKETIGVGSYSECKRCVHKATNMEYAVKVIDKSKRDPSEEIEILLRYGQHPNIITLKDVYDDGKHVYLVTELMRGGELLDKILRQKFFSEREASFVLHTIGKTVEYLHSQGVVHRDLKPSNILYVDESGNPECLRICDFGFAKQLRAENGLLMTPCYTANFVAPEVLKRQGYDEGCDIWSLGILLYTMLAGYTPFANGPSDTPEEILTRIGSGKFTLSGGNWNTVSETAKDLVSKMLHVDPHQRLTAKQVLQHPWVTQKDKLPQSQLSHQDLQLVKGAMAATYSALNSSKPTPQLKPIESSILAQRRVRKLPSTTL
Experimental endpoint: IC50

Lab note: `CN(C)c1ccc(C(=O)Nc2cccc(NC(=O)COc3ccc4c(=O)ccoc4c3)c2)cc1` gave IC50 of > 10 µM

* * *

target: Dual specificity tyrosine-phosphorylation-regulated kinase 2 (Homo sapiens); assay: Inhibition of recombinant full length human DYRK2 using casein as substrate after 40 mins in presence of [gamma-33ATP] by radiometric scintillation counting analysis
Sequence (Q92630 whole entry): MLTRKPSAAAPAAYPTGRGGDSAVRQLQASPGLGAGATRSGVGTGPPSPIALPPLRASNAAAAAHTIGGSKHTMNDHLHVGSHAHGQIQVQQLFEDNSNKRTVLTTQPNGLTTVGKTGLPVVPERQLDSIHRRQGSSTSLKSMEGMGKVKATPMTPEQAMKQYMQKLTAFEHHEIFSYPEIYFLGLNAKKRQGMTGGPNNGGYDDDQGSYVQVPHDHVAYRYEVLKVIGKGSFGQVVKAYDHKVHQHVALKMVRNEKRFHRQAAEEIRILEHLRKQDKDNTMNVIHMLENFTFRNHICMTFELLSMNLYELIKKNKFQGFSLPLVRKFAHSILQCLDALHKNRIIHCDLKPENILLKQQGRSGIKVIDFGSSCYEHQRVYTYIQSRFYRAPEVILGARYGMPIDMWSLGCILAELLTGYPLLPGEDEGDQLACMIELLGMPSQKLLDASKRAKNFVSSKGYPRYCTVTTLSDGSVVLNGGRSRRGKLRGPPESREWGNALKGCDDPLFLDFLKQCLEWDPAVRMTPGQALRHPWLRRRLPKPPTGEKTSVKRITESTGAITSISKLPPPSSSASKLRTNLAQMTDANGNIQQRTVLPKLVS
Experimental endpoint: IC50

For the molecule `CN(C)c1ccc(C(=O)Nc2cccc(NC(=O)COc3ccc4c(=O)ccoc4c3)c2)cc1` , the measured IC50 on Dual specificity tyrosine-phosphorylation-regulated kinase 2 (Homo sapiens) was > 10 µM

* * *

molecular target: Fibroblast growth factor receptor 1 (Homo sapiens, UniProt P11362, V561M); assay: Inhibition of recombinant human FGFR1 V561M mutant (456 to 765 residues) using GGEEEEYFELVKK as substrate after 40 mins in presence of [gamma-33ATP] by radiometric scintillation counting analysis
Sequence (P11362 22-822 V561M limits assumed): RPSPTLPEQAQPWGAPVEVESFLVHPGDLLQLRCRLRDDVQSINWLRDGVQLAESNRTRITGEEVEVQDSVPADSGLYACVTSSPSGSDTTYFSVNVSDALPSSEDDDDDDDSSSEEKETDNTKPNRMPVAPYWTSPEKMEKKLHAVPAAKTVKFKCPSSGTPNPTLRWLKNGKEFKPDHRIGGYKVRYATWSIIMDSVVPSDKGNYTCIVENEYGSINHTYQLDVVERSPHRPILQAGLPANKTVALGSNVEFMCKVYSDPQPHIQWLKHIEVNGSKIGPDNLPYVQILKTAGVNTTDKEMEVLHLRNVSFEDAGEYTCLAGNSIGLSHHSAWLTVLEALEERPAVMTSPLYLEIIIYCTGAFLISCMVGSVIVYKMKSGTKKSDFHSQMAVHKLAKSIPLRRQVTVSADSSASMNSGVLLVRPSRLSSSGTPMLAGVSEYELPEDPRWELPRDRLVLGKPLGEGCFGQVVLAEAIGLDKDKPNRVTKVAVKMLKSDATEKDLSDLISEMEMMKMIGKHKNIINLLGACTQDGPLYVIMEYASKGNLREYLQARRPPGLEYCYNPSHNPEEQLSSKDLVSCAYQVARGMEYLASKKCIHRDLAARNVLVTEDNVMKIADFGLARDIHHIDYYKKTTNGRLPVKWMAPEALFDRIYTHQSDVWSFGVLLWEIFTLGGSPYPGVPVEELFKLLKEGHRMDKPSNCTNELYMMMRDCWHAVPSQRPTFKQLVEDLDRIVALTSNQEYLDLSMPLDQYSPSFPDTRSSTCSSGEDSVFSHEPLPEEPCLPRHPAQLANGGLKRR
pIC50: −log10 of the molar value.
Experimental endpoint: pIC50

Kindly note the recorded pIC50 for `CN(C)c1ccc(C(=O)Nc2cccc(NC(=O)COc3ccc4c(=O)ccoc4c3)c2)cc1` , which is < 5.00

* * *

molecular target: cGMP-dependent protein kinase 2 (Homo sapiens, UniProt Q13237); assay: Inhibition of recombinant full-length human PRKG2 using KKLRRTLSFAEPG as substrate incubated for 40 mins in presence of [gamma33P]ATP by radiometric scintillation counting analysis
Sequence (Q13237 whole entry): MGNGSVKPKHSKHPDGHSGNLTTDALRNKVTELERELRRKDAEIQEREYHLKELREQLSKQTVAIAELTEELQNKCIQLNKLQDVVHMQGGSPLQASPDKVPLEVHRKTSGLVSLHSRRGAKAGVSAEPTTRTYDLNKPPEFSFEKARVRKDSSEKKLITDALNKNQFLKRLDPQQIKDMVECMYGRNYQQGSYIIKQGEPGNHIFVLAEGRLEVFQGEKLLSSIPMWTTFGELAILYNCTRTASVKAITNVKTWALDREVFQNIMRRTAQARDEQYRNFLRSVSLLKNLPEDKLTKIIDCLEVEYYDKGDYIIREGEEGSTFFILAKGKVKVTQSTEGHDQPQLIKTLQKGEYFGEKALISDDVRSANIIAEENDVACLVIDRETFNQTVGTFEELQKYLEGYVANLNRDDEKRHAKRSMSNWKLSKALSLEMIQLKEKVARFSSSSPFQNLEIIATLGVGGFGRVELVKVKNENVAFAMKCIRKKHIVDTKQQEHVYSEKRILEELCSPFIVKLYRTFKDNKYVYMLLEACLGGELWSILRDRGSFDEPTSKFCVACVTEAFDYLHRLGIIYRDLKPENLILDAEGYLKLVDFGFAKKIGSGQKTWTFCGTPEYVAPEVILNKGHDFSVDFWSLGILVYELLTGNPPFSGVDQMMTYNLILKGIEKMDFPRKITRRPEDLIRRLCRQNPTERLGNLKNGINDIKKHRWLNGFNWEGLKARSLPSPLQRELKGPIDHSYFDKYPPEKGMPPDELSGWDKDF
Experimental endpoint: IC50

Just so you know, measured IC50 for `CN(C)c1ccc(C(=O)Nc2cccc(NC(=O)COc3ccc4c(=O)ccoc4c3)c2)cc1` came out at > 10 µM

* * *

Target: Inhibitor of nuclear factor kappa-B kinase subunit epsilon (Homo sapiens)
Sequence (Q14164 whole entry): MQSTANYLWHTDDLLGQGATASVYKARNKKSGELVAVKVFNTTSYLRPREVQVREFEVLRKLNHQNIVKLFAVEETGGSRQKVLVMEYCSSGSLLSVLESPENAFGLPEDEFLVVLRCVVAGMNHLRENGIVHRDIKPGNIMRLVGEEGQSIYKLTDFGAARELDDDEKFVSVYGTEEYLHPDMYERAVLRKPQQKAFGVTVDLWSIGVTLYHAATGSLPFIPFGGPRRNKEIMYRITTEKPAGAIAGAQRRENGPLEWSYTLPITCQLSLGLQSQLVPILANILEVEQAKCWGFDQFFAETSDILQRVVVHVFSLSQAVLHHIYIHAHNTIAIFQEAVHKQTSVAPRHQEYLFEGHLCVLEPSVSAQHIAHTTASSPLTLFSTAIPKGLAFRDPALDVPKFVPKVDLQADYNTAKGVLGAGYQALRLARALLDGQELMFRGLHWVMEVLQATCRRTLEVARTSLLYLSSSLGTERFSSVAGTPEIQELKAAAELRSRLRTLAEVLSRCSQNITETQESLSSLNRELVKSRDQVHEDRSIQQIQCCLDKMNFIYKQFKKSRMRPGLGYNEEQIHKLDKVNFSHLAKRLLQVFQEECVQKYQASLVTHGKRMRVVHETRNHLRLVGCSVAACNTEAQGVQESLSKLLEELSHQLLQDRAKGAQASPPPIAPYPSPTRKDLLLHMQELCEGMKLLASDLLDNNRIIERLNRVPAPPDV
Assay: Inhibition of recombinant full length human IKKepsilon using casein as substrate after 40 mins by [gamma-33ATP] by radiometric scintillation counting analysis
Experimental endpoint: IC50

Noted for `CN(C)c1ccc(C(=O)Nc2cccc(NC(=O)COc3ccc4c(=O)ccoc4c3)c2)cc1` : its IC50 reads > 10 µM

All figures here come from ChEMBL document CHEMBL4376834.
